molecular target: VEGF-R2 (Homo sapiens, UniProt P35968, DEL940-989/E990V); construct: VEGF-R2Δ50 contains residues 806–939 and 990–1171; made in house; host or cells: baculovirus/insect cells; experiment: VEGF-R2 Assay (coupled spectrophotometric FLVK-P / ELISA); assay type: biochemical; conditions: read-out: VEGF % Inhib. at 1 μM
Sequence (P35968 with tags, fused parts or gaps DEL940-989/E990V limits assumed): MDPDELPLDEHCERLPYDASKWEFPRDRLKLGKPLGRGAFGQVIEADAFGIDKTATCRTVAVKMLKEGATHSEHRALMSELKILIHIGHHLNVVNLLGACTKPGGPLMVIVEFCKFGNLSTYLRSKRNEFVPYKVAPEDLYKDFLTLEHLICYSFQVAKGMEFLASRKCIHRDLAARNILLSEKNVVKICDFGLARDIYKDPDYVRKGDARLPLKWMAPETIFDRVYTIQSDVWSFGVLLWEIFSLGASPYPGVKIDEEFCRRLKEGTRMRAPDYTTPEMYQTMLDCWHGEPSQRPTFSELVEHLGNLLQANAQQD
assay.readout: inhibition at 1 µM (%)

Consider the worked cases shown below.
- CCNCc1cncc(-c2ccc3[nH]nc(-c4nc5ccccc5[nH]4)c3c2)c1C [Example 74]: 14
- O=C(Nc1cccc2c(-c3ccc4[nH]nc(-c5nc6ccccc6[nH]5)c4c3)cncc12)c1cccnc1 [Example 55]: 32
- Cc1c(-c2ccncc2)cncc1-c1ccc2[nH]nc(-c3nc4ccc(NS(C)(=O)=O)cc4[nH]3)c2c1 [Example 71]: 42

1 = Cc1c(-c2cccc(CO)c2)cncc1-c1ccc2[nH]nc(-c3nc4ccccc4[nH]3)c2c1 [Example 69]
2 = Cc1c(-c2cccnc2)cncc1-c1ccc2[nH]nc(-c3nc4ccccc4[nH]3)c2c1 [Example 58]
3 = OCc1cccc2[nH]c(-c3n[nH]c4ccc(-c5cncc6ccccc56)cc34)nc12 [Example 29]
List from greatest to least inhibition at 1 µM. // rank by listing labels in the order requested
1, 2, 3
